tested on: major urinary protein (MUP); assay: QCM ligand-binding test: shift of resonant frequency on binding of evaporated ligand to immobilized MUP; parameters: species or system mouse; conditions: MUP immobilized on 10 MHz AT-cut QCM chip; odorant sample evaporated at 50° C. and pumped into detection chamber
measured-quantity: Change of Signal (in frequency f)
Please respond with just the number, no unit label.

These solved cases illustrate the format of a correct answer.
- molecule: "CCCC(=O)OCc1ccccc1 [benzylbutyrate]"
  quantitative-readout: 43
- molecule: "C/C=C(\\C)C(=O)OCCCCCC [hexyltiglate]"
  quantitative-readout: 55
- molecule: "CCCCCCOC(=O)CCC [hexylbutyrate]"
  quantitative-readout: 23
- molecule: "CCCOC(=O)CCC [propylbutyrate]"
  quantitative-readout: 26
- molecule: "C/C=C(\\C)C(=O)OCCC [propyltiglate]"
  quantitative-readout: 29

Lab note: next molecule to report on.
Query for major urinary protein (MUP): what Change of Signal (in frequency f) does the record show for C/C=C(\C)C(=O)OCc1ccccc1 [benzyltiglate] ?
43
